Tested on: CCRF-CEM leukemia
Assay: NCI-60 one-dose screen, 48 h
Conditions: 10 µM unless noted
Protocol: Growth inhibition of the CCRF-CEM human tumor cell line is measured as a screen for anti-cancer activity. Cells are grown in 96 well plates and exposed to the test compound for 48 hours. Compounds are tested at a single concentration, which is 10^-5 M for most compounds. The reported endpoint is percent growth (GI% or GIPRCNT), where numbers from 0 - 100% represent growth inhibition, and numbers from -100% - 0 represent cell death. For example, a value of 40 represents 60% growth inhibition. […]
About 83,000 compounds went through this panel and 20% of them were active in at least one assay; those are over-represented in the sample as a whole. The source made the active and inactive calls. The calls were made as follows: active = growth percent below 10; inactive = the rest.
Possible outcomes: active, inactive

Molecule | Class
COc1ccc(S(=O)(=O)c2ccc(C(N)=O)cc2)cc1NC(=O)c1[nH]c(C)c2c1CCCCC2=O | inactive
Cc1c(NCC(=O)Nc2nc3ccccc3[nH]2)c(=O)n(-c2ccccc2)n1C | inactive
COc1cccc(C2C3=C(COC3=O)N(CCO)c3cc4c(cc32)OCO4)c1 (stereo unspecified) | inactive
C[C@@H](Oc1cc(-c2cnn(C3CC4(CNC4)C3)c2)cnc1N)c1c(Cl)ccc(F)c1Cl | inactive
Cc1ccc(C(=O)Nc2ccccc2N)cc1 | active
Brc1ccc(SCN(CSc2ccc(Br)cc2)Cc2ccccc2)cc1 | active
Cc1ccc(C2SCC(=O)N2NC(=O)c2[nH]c3ccc(F)cc3c2-c2ccccc2)cc1 (stereo unspecified) | inactive
COc1ccc(/C=C(\C#N)c2cc3ccccc3n2C)cc1 | inactive
CC1(C)CC(=O)C2=C(C1)Nc1cc3c(cc1C2c1ccc(F)cc1)OCO3 (stereo unspecified) | inactive
O=C1c2ccccc2-c2cn(Cc3ccccc3)c3cccc(c23)C1c1cccnc1 (stereo unspecified) | inactive
Cc1nc2cc(Nc3nc(Nc4ccc(F)cc4)nc(-c4cccs4)n3)ccc2n1Cc1ccccc1 | inactive
O=C1CC(c2ccsc2)c2snc(-c3ccc(Cl)cc3)c2N1 (stereo unspecified) | inactive
CCCCCCCCCCCCCCn1c2ccccc2c2c3c(c4c5cc(OC)ccc5oc4c21)C(=O)NC3=O | inactive
CCOC(=O)c1cn2c3c(cc(F)cc3c1=O)C(CC)c1ccccc1C2 (stereo unspecified) | inactive
O=C1C(Cl)=C(NCCCN2CCOCC2)C(=O)c2ccccc21 | inactive
O=C1NC(=S)S/C1=C\c1cccc([N+](=O)[O-])c1 | inactive
COc1cc(/C=N/NC(=O)c2cnn3c2NC(c2ccccc2)C3)ccc1OC1CCCC1 (stereo unspecified) | inactive
CCCCCCCC/C=C\CCCCCCCCOc1cccc(CC(=O)NCC[N+](C)(C)C)c1 | inactive
CCOC(=O)C1=C(C)N2C(=NC3=C(CCCC/C3=C\c3cc(OC)c(OC)c(OC)c3)C2c2cc(OC)c(OC)c(OC)c2)S1 (stereo unspecified) | inactive
COc1ccc2c(c1)c(=O)oc1c(C)c(OCC(C)=O)ccc12 | inactive
Nc1nc2c(s1)CCc1c-2c(Br)n(Cc2ccccc2)c1Br | active

###

system: BT-549 breast; experiment: NCI-60 one-dose screen, 48 h; conditions: 10 µM unless noted
Compounds without any hit were thinned out: in the full panel of roughly 83,000, 20% have a hit. Calls of active or inactive are those of the source. The calls were made as follows: active = growth percent below 10; inactive = the rest.
Possible outcomes: active, inactive

Molecule | System Tested | Class
O=c1c2c(=NCCN3CCCC3)cc3c(=O)n(CCCN4CCOCC4)c(=O)c4ccc(c(O)n1CCCN1CCOCC1)c2c4-3 | BT-549 breast | active
COC(=O)C1C2CC3c4[nH]c5cc(OC)ccc5c4CCN3CC2CC(OC2CCCCO2)C1OC (stereo not given) | BT-549 breast | inactive
O=S(=O)(/N=C1C=C/C(=N\S(=O)(=O)c2ccccc2)c2ccccc2\1)c1ccccc1 | BT-549 breast | inactive
O=C(NCc1cccnc1)c1ccc([N+](=O)[O-])o1 | BT-549 breast | active
Cc1ccc(N=c2nc3sc4c(C)ccc(C)c4n3c(N)c2C#N)cc1 | BT-549 breast | inactive

###

test system: HT29 colon; assay: NCI-60 one-dose screen, 48 h (100 = growth as untreated, 0 = no growth, -100 = all killed); conditions: 10 µM unless noted
Compounds without any hit were thinned out: in the full panel of roughly 83,000, 20% have a hit.
Observation Type: growth (%)

Given Smiles | Observation Type | Value Units | Endpoint Result
Cc1cc(O)cc2c1[C@H]1CC[C@]3(C)[C@@H](O)CC[C@H]3[C@@H]1C=C2 | growth | % | 93.5
Cc1ccc2nc(NC(=O)CSC(=S)N3CCN(Cc4ccccc4)CC3)sc2c1 | growth | % | -62.7
O=c1oc2ccccc2cc1-c1csc(N=Nc2c(O)[nH]c3ccc(Cl)cc23)n1 | growth | % | 101
O=C1/C(=C/c2ccc(F)cc2)CN(Cc2cn(CCNc3ccnc4cc(Cl)ccc34)nn2)C/C1=C\c1ccc(F)cc1 | growth | % | -79.2
Clc1ccccc1Nc1ccc2nnc(-c3ccncc3)n2n1 | growth | % | 99.2
O=c1[nH]c(-c2ccncc2)nc2sc3c(c12)CCCCCC3 | growth | % | 99
Nc1c(Br)cc(Br)cc1-c1n[nH]c(=O)[nH]c1=O | growth | % | 99.7
COc1cc(C(=O)/C=C/c2c(-c3cccs3)nc3sccn23)cc(OC)c1OC | growth | % | -13.8
O=S(=O)(Nc1ccc(Cl)c(Cl)c1)c1ccc(-c2cnc(C3CC3)o2)cc1 | growth | % | 10.2
CCOC(=O)c1cc2c(n(C)c1=O)-c1cnn(-c3ccc(OC)cc3)c1CC2 | growth | % | 95.6

###

Parameter growth: see the listing below.
system: U251 CNS; assay: NCI-60 one-dose screen, 48 h (100 = growth as untreated, 0 = no growth, -100 = all killed); details: 10 µM unless noted
About 83,000 compounds went through this panel and 20% of them were active in at least one assay; those are over-represented in the sample as a whole. Calls of active or inactive are those of the source. The calls were made as follows: active = growth percent below 10; inactive = the rest.

Given Smiles | growth
COC(=O)c1c2c(c(C)[n+]([O-])c1C)C(=O)C=C(NCc1ccc(F)cc1)C2=O | -23.1% (active)
C[C@@H](Oc1cc(-c2cnn(C3CC4(CNC4)C3)c2)cnc1N)c1c(Cl)ccc(F)c1Cl | 61.8% (inactive)
N#Cc1ccc(C(F)(F)F)nc1N1CCC(C(=O)Nc2ccc(Cl)cc2)CC1 | 65.3% (inactive)
O=S(=O)(Nc1ncccn1)c1ccc(Nc2ccc3nnc(-c4ccncc4)n3n2)cc1 | 102% (inactive)
CN1CCc2c(Sc3ccc(C(=O)NO)cc3)c3ccccc3n2C1 | 23.8% (inactive)

###

system: T-47D breast; assay: NCI-60 one-dose screen, 48 h; settings: 10 µM
About 83,000 compounds went through this panel and 20% of them were active in at least one assay; those are over-represented in the sample as a whole. Activity calls are given as the source filed them. How the source made its calls: active means growth percent below 10; inactive means the rest.
Outcome codes: active, inactive

Compound | System Tested | Class
C=CC[P+](c1ccccc1)(c1ccccc1)c1ccccc1 | T-47D breast | inactive
CN1CCc2c(c3ccccc3c3ccccc23)C1 | T-47D breast | inactive
C[C@H]1C(=O)C23CCC1C[C@@]21O[C@@H]2C(C)(C)C=CC(=O)C23COC1=O | T-47D breast | inactive
O=C(NCc1ccc(F)cc1)C1CN(c2ccc(Cl)cc2)N(c2ccc(Cl)cc2)C1=O (stereo unspecified) | T-47D breast | inactive
NS(=O)(=O)c1cc(Br)c2c(c1)S(=O)(=O)NCN2 | T-47D breast | inactive
COC(=O)c1c2c(c(C)[n+]([O-])c1C)C(=O)C=C(NCc1ccc(Cl)cc1)C2=O | T-47D breast | active
Brc1ccc(SCN(CSc2ccc(Br)cc2)Cc2ccccc2)cc1 | T-47D breast | inactive
COc1ccc(C2OCC(C)(C)CO2)cc1OC | T-47D breast | inactive
Cc1cccc2c(=O)c3c(sc12)c(NCCCN)nc1ccccc13 | T-47D breast | inactive
COc1cccc(OC(=O)c2ccccc2)c1OC(=O)c1ccccc1 | T-47D breast | inactive
COc1cc(/C=C/C(=O)C(=Cc2ccc(F)c(F)c2)C(=O)/C=C/c2ccc(O)c(OC)c2)ccc1O | T-47D breast | inactive
CN([N-]C(=O)CC(=O)[N-]N(C)C(=S)c1ccccc1)C(=S)c1ccccc1.[Cu+2] | T-47D breast | active
COc1ccc(-c2nc3sc(C)cn3c2/C=C/C(=O)c2cc(OC)c(OC)c(OC)c2)cc1 | T-47D breast | inactive
CC(=O)Nc1ccc(Sc2ccc([N+](=O)[O-])o2)cc1 | T-47D breast | active
Cc1ccc(C)c2c1sc1nc3nc4sc5ccccc5n4c(=N)c3c(=O)n12 | T-47D breast | inactive
CCOC(=O)C1=C(C)N2C(=NC3=C(CCCC/C3=C\c3ccccc3)C2c2ccccc2)S1 (stereo unspecified) | T-47D breast | inactive
CC(C)OC1=C(Cl)C(=O)c2ccccc2C1=O | T-47D breast | active
CC1=CN2C(=NC3=C(CCCC/C3=C\c3ccccc3)C2c2ccccc2)S1 (stereo unspecified) | T-47D breast | inactive
COC(=O)c1c2c(c(C)[n+]([O-])c1C)C(=O)C=C(NCc1cccc(OC)c1)C2=O | T-47D breast | active
CCCOC(=O)c1ccc2c(c1)[N+](=O)C(C(=O)c1ccccc1)=C(C(F)(F)F)[N+]2=O | T-47D breast | active
Cc1nn2c(-c3nc4ccc(Cl)cc4[nH]3)c(-c3ccc(F)cc3)nc2s1 | T-47D breast | inactive
